Measured GI50 accompanies every entry in the list below.
Tested on: K562
assayDetails: Cytotoxicity against human K562 cells after 72 hrs by XTT assay
Type: functional
conditionInfo: K562, 72 h
The reply should consist of the numeric value with the unit placed after it.

Look over these answered cases.
molecule	readoutKind	obsValue
CC[C@@]1(O)C(=O)OCc2c1cc1n(c2=O)Cc2cc3ccccc3nc2-1 [CAMPTOTHECIN]	GI50	60 nM
O=C1c2ccccc2C(=O)c2occc21	GI50	650 nM
O=C1C(=O)c2ccoc2-c2ccccc21	GI50	640 nM
CO/N=C1/c2ccccc2C(=O)c2occc21	GI50	600 nM

Now for a further molecule.
// query Please report the measured GI50 for CC(=O)O/N=C1/c2ccccc2C(=O)c2occc21
// result 8590 nM

---

Measured Activity accompanies every entry in the list below.
Test system: K562
assayDetails: Cell cycle arrest in human K562 cells assessed as accumulation at S phase at 1 uM after 24 hrs using propidium iodide staining by flow cytometry
Type: functional
Record the value in %, omitting the unit from your answer.

Look over these answered cases.
givenSmiles	readoutKind	unitInfo	obsValue
CCN(CC)CCOC(=O)c1ccc(/N=C2/c3ccccc3/C(=N/c3ccc(C(=O)OCCN(CC)CC)cc3)c3occc32)cc1	Activity	%	7.1
O=C1c2ccccc2C(=O)c2occc21	Activity	%	29.4
CO/N=C1/c2ccccc2C(=O)c2occc21	Activity	%	35.7
Br.NCCCO/N=C1/c2ccccc2C(=O)c2occc21	Activity	%	3.2

// query Please report the measured Activity for O=C1c2ccccc2/C(=N/O)c2ccoc21
// result 4.4

// query Please report the measured Activity for O=C1C(=O)c2ccoc2-c2ccccc21
// result 51.2

// query Please report the measured Activity for CC(=O)O/N=C1/c2ccccc2C(=O)c2occc21
// result 30.2

---

Test system: SF-268
assayDetails: Cytotoxicity against human SF268 cells after 72 hrs by XTT assay
Format: functional
conditionInfo: SF-268, 72 h
readoutKind: log10(GI50) (log10 of the value in µM)
Answers are given as log10 of GI50 in µM.

Look over these answered cases.
givenSmiles	log10(GI50)
CCN(CC)CCOC(=O)c1ccc(/N=C2/c3ccccc3/C(=N/c3ccc(C(=O)OCCN(CC)CC)cc3)c3occc32)cc1	0.61
CO/N=C1/c2ccccc2C(=O)c2occc21	1.22
CC(=O)O/N=C1/c2ccccc2C(=O)c2occc21	0.90
O=C1c2ccccc2C(=O)c2occc21	0.75
Br.NCCCO/N=C1/c2ccccc2C(=O)c2occc21	0.96

// query Please report the measured log10(GI50) for O=C1c2ccccc2/C(=N/O)c2ccoc21
// result 0.95

// query Please report the measured log10(GI50) for CC[C@@]1(O)C(=O)OCc2c1cc1n(c2=O)Cc2cc3ccccc3nc2-1
// result -0.72

// query Please report the measured log10(GI50) for COc1cccc2c1C(=O)c1c(O)c3c(c(O)c1C2=O)C[C@@](O)(C(C)=O)C[C@@H]3O[C@H]1C[C@H](N)[C@H](O)[C@H](C)O1
// result -0.22

// query Please report the measured log10(GI50) for O=C1C(=O)c2ccoc2-c2ccccc21
// result 0.80

---

Test system: MCF7
assayDetails: Cytotoxicity against human MCF7 cells at 4 ug/ml after 48 hrs by sulforhodamine B assay relative to control
Format: functional
readoutKind: Activity (%)
Record the value in %, omitting the unit from your answer.

Look over these answered cases.
givenSmiles	unitInfo	Activity
c1ccc(/N=C2/c3ccccc3/C(=N/c3ccccc3)c3occc32)cc1	%	111
Br.NCCCO/N=C1/c2ccccc2C(=O)c2occc21	%	10
CN(C)CCCO/N=C1/c2ccccc2C(=O)c2occc21	%	74
O=C1c2ccccc2C(=O)c2occc21	%	1
O=C1C(=O)c2ccoc2-c2ccccc21	%	0

// query Give Activity for O=[N+]([O-])c1ccc(/N=C2/c3ccccc3/C(=N/c3ccc([N+](=O)[O-])cc3)c3occc32)cc1 tested on MCF7.
// result 111

// query Give Activity for O=C1c2ccccc2/C(=N/OCCN2CCOCC2)c2ccoc21 tested on MCF7.
// result 97

// query Give Activity for O=C1c2ccccc2/C(=N/OCCN2CCCCC2)c2ccoc21 tested on MCF7.
// result 87

// query Give Activity for CCN(CC)CCOC(=O)c1ccc(/N=C2/c3ccccc3/C(=N/c3ccc(C(=O)OCCN(CC)CC)cc3)c3occc32)cc1 tested on MCF7.
// result -1

// query Give Activity for COc1cccc2c1C(=O)c1c(O)c3c(c(O)c1C2=O)C[C@@](O)(C(C)=O)C[C@@H]3O[C@H]1C[C@H](N)[C@H](O)[C@H](C)O1 tested on MCF7.
// result 30

// query Give Activity for CO/N=C1/c2ccccc2C(=O)c2occc21 tested on MCF7.
// result 36

// query Give Activity for FC(F)(F)c1ccc(/N=C2/c3ccccc3/C(=N/c3ccc(C(F)(F)F)cc3)c3occc32)cc1 tested on MCF7.
// result 111

// query Give Activity for COc1ccc(/N=C2/c3ccccc3/C(=N/c3ccc(OC)cc3)c3occc32)cc1 tested on MCF7.
// result 86

// query Give Activity for O=C1c2ccccc2/C(=N/c2ccccc2)c2ccoc21 tested on MCF7.
// result 74

// query Give Activity for O=C1c2ccccc2/C(=N/OCc2ccccc2)c2ccoc21 tested on MCF7.
// result 93

// query Give Activity for O=C1c2ccccc2/C(=N/OCCN2CCCC2)c2ccoc21 tested on MCF7.
// result 72

// query Give Activity for O=C1c2ccccc2/C(=N/c2ccc(F)cc2)c2ccoc21 tested on MCF7.
// result 75

// query Give Activity for CC(=O)O/N=C1/c2ccccc2C(=O)c2occc21 tested on MCF7.
// result 10

// query Give Activity for O=C1c2ccccc2/C(=N/O)c2ccoc21 tested on MCF7.
// result 10

// query Give Activity for CC[C@@]1(O)C(=O)OCc2c1cc1n(c2=O)Cc2cc3ccccc3nc2-1 tested on MCF7.
// result 33

// query Give Activity for Fc1ccc(/N=C2/c3ccccc3/C(=N/c3ccc(F)cc3)c3occc32)cc1 tested on MCF7.
// result 102

---

System: MCF7
assayDetails: Cytotoxicity against human MCF7 cells after 72 hrs by XTT assay
Format: functional
conditionInfo: MCF7, 72 h
readoutKind: log10 GI50 (log10 of the value in µM)
Answers are given as log10 of GI50 in µM.

givenSmiles	log10 GI50
CO/N=C1/c2ccccc2C(=O)c2occc21	1.01
O=C1c2ccccc2C(=O)c2occc21	0.77
COc1cccc2c1C(=O)c1c(O)c3c(c(O)c1C2=O)C[C@@](O)(C(C)=O)C[C@@H]3O[C@H]1C[C@H](N)[C@H](O)[C@H](C)O1	-0.07
Br.NCCCO/N=C1/c2ccccc2C(=O)c2occc21	1.10

// query Please report the measured log10 GI50 for CC(=O)O/N=C1/c2ccccc2C(=O)c2occc21
// result 1.12
